target: Vitamin D3 receptor (Homo sapiens); assay: qHTS assay to identify small molecule agonists of the vitamin D receptor (VDR) signaling pathway (AID 743222); conditions: HEK293T VDR-UAS-bla, beta-lactamase FRET ratio, 16 h; series mostly up to 63.5 µM
Records with an inconclusive call do not appear. Calls of active or inactive are those of the source. The call rests on the fitted dose curve.

compound	targetOrTestSystem	outcome
O=C(O)/C=C/c1cnc[nH]1	Vitamin D3 receptor (Homo sapiens)	inactive
CCCCOc1cc(C(=O)OCCN(CC)CC)ccc1N	Vitamin D3 receptor (Homo sapiens)	inactive
CCCCCC(CO)CCC (stereo not drawn)	Vitamin D3 receptor (Homo sapiens)	inactive

###

test system: thyroid hormone receptor (rat, GH3 cells); assay: qHTS assay to identify small molecule agonists of the thyroid receptor (TR) signaling pathway (AID 743066); conditions: GH3.TRE-Luc cells, TR agonist luciferase, 24 h; series mostly up to 83.9 µM
Results filed as inconclusive are left out. Activity calls are given as the source filed them. The call rests on the fitted dose curve.
assayMetric: outcome

compound	resultValue
COC(=O)C(C)=O	inactive
NCc1ccccc1	inactive
CCOC(=O)C1=NN(c2ccccc2)C(=O)C1	inactive
O=C(Cl)c1ccc([N+](=O)[O-])cc1	inactive
CC(=O)c1ccc2c(c1)[C@H](NC(=O)c1ccc(F)cc1)[C@@H](O)C(C)(C)O2	inactive
CCCCCC(CO)CCC (configuration not stated)	inactive
Cc1ccc(O)c([C@H](CCN(C(C)C)C(C)C)c2ccccc2)c1	inactive
CCCCCCCCCCCCCCC1CO1 (configuration not stated)	inactive
Cc1ccccc1N=Nc1ccc(N=Nc2c(O)ccc3ccccc23)c(C)c1	inactive
Cc1c(Cn2ccnc2)c2ccccc2n1CCC(=O)O	inactive
CCCCCc1ccc(N)cc1	inactive
Oc1ccc(O)c2c(O)cccc12	inactive
